# run.description: binders of probe aFST on microarray, primary screen, stem cell growth factor project, biochemical, small-molecule microarray, fluorescence 635/667 (AID 1086);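 note: score merges 667 nm fluorescence with signal-to-noise of each printed compound spot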
# condition.info: higher = more signal
property: composite z-score

Here's what some known entries look like.
COC(=O)[C@@]1(Cc2ccc(F)cc2)[C@H]2c3cc(C(=O)N(C)C)n(Cc4ccc(C(F)(F)F)nc4)c3C[C@H]2CN1C(=O)c1ccccc1	1.97
COC(=O)[C@H](Cc1ccccc1)N1CC(C)(OC)O[C@@H](Cc2ccccc2)[C@H]1/C=C/C1CC1 (stereo partly specified)	-0.205
COC(=O)C(CC#Cc1ccc2c(c1)[C@]1(C(=O)N2)[C@H](C(=O)N2CCN(c3ncccn3)CC2)[C@H]2C(=O)O[C@H](c3ccccc3)[C@H](c3ccccc3)N2[C@@H]1c1ccc(O)cc1)C(=O)OC	2.24
O=C1O[C@H](c2ccccc2)[C@H](c2ccccc2)N2[C@H]1[C@@H](C(=O)N1CCCCCCC1)[C@]1(C(=O)Nc3ccc(C#CCCO)cc31)[C@H]2c1ccc(O)cc1	3.34
C=CCNC(=O)[C@H]1[C@@H]2C(=O)O[C@@H](c3ccccc3)[C@@H](c3ccccc3)N2[C@@H](c2ccc(O)cc2)[C@]12C(=O)Nc1ccc(C#CCC(C(=O)OC)C(=O)OC)cc12	0.0765

Now consider a different molecule.
Please report the recorded composite z-score for CCOC(=O)C[C@H]1[C@H](OC(=O)Cc2ccc3c(c2)OCO3)[C@@H](NC(=O)CC(C)C)c2cc(OCCCO)ccc2N1C(=O)c1ccc2ccccc2n1 .
0.376

----------
# run.description: small-molecule binders of probe aLefty1, primary screen, biochemical, small-molecule microarray, 635/667 nm fluorescence (AID 1153);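 note: score merges spot fluorescence with signal-to-noise ratio from the scanned slide images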
# condition.info: higher = more signal
property: composite z-score
Write no unit; give the number alone.

Here's what some known entries look like.
C=CCNC(=O)[C@@H]1[C@H]2C(=O)O[C@H](c3ccccc3)[C@H](c3ccccc3)N2[C@H](c2ccc(O)cc2)[C@@]12C(=O)Nc1ccc(C#CC3=CCCCC3)cc12	1.56
CCCCCCc1nc(-c2ccc(OC)nc2)c(C)c2c1[Si](C(C)C)(C(C)C)OC2	-0.115
CN(C)CCCCNC(=O)[C@H]1C[C@H]2C(=O)N[C@@H](CCCCN(C)C)C(=O)N2[C@H]1c1ccc(O)cc1	-0.299
CCCCCN1CC=CC23O[C@@H]4/C=C\CCCOC(=O)C4[C@H]2C(=O)N(CCO)[C@@H]3C1=O (stereo not given in full)	-0.103
O=C1C2C=CC(C(O)C3CC=CCC3)N(Nc3ccc([N+](=O)[O-])cc3)C2C(=O)N1c1ccccc1 (stereo not given)	0.908
CC1C2C(CCCO)=CC(C3C(=O)N(C)C(=O)C23)N1Cc1cccc(OC(F)(F)F)c1 (stereo not given)	-0.0083
COC(=O)C1=CC(CCCO)=CC(c2ccc(CN3CCCC3)cc2)N(C)C=C1C(=O)OC (stereo not given)	0.212
O=C1C2C=CC(C(O)c3ccccn3)N(Nc3ccc([N+](=O)[O-])cc3)C2C(=O)N1c1ccccc1 (stereo not given)	0.0768

Field request: composite z-score | item: C[C@]1(C(=O)O)c2ccccc2C(=O)N(Cc2cc(C(F)(F)F)cc(C(F)(F)F)c2)[C@H]1c1ccc(CO)cc1
-0.0479

What value of composite z-score has been reported for the following compound? O=C1N(Cc2ccccc2)c2ccccc2C[C@@]12N=C(c1ccc(OCCCO)cc1)O[C@H]2c1ccccc1
0.383

# query: composite z-score of entry CC[C@@H](O[Si](C#C[Si](C(C)C)(C(C)C)C(C)C)(C(C)C)C(C)C)c1cn([C@H](CO)Cc2ccccc2)nn1
-0.0094
